Each record here notes measured EC50.
# SYSTEM_UNDER_TEST: T1, human Claudin18.2 (human, UniProt P56856-2 1-261)
# T1 construct: whole, on cells; also called CLDN18.2; HEK293T-Claudin18.2 (human)
# TEST: cell-based ELISA on fixed HEK293T-Claudin18.2 (human) cells
# Description: The affinity of the anti-human Claudin18.2 murine monoclonal antibodies was evaluated by cell-based ELISA. The experimental procedures were as follows: The day before the experiment, HEK293T-Claudin18.2 (human) cells were plated in a 96-well plate at 5×10⁴ cells/well. […] The reaction was stopped by adding 50 μL of 2 N HCl to each well, and OD_{450 nm} values were read on a microplate reader (manufacturer: MD, model: SpectraMax). […]
RECORDED_METRIC: EC50 (µg/mL)

[[record]]
binder = "8H11A10 (antibody, V domains shown, Murine monoclonal antibody) VH: QVQLKESGPVLVAPSQSLSITCTVSGFSLTNYGVHWVRQPPGKGLEWLGVIWSGGRTNYNSALMSRLSISKDNSKSQVFLKMNSLQTDDTAMYYCAKRDGIYGDYWGQGTSVTVSS VL: DIVETQSPSSLTVTAGEKVTMSCKSSQSLLNSGNQKNYLTWYQQKPGQSPKLLIYWASTRESGVPDRFTGSGFGTDFTLTISSVQAEDLAVYYCQNDYIYPLTFGAGTKLELK"
recorded_metric = "EC50"
result_units = "µg/mL"
value_reported = 0.0123

[[record]]
binder = "40G11H2 (antibody, V domains shown, Murine monoclonal antibody) VH: EVQLQQSGAELARPGASVKLSCKASGYTFTSYGIRWVKQRTGQGLEWIGEIYPRGGNTYYDEKFKGKATLTADKSSSTAYMGLRSLTSEDSAVYFCARADYGNSFAYWGQGTLVTVSA VL: DIVMTQSPSSLTVTAREKVTMSCKSSQSLLNSGNQKNYLTWYHQKPGQPPKLLIYWASTRESGVPDRFTGSGSGTDFTLTISSVQAEDLAVYFCQNAYFYPFTFGTGTKLEIK"
recorded_metric = "EC50"
result_units = "µg/mL"
value_reported = 0.00738

[[record]]
binder = "25C7A5 (antibody, V domains shown, Murine monoclonal antibody purified from hybridoma supernatant) VH: EVQLQQPGAELVKPGTSVKLSCKASGYTFTNYWLHWVRQRPGQGLEWIGMMHPISGSSNNNERFKSKATLTVDKSSTTAYMQLSRMTSEDSAVYYCARGLLSAMDYWGQGTSVTVSS VL: CIVLTQSPKSMSMSVGERVTLSCKASENVKTYVSWYQQRPEQSPKLLIYEASNRYTGVPDRFTGSGSATVFTLTISSVQTEDLANYFCGQTYSFPPTFGSGTKLEIK"
recorded_metric = "EC50"
result_units = "µg/mL"
value_reported = 0.0105

